# Test system: Rattus norvegicus
# Measurement protocol: Minimum effective dose (po) for 6-hydroxydopamine rotation in male Sprague-Dawley rats
# Type: functional
# Condition context: read-out: MED
Assay metric: minimal effective dose

In: Return minimal effective dose measured with Rattus norvegicus given this molecule: Cc1noc(C)c1CN1CCN(c2nc(N)n3nc(-c4ccco4)nc3n2)CC1
Out: > 10 mg/kg

In: Return minimal effective dose measured with Rattus norvegicus given this molecule: Nc1nc(N2CCN(Cc3c(Cl)ccc(F)c3F)CC2)nc2nc(-c3ccco3)nn12
Out: > 10 mg/kg

In: Return minimal effective dose measured with Rattus norvegicus given this molecule: Nc1nc(N2CCN(Cc3ccccn3)CC2)nc2nc(-c3ccco3)nn12
Out: > 10 mg/kg
